Entry source: patent US11485733B2

system: Cooperia curticei; assay: Cooperia curticei larval mortality; conditions: 120 h, read-out: activity (percentage of larval mortality)
RECORDED ENDPOINT: mortality at 4 ppm (%)
Give the number; % is assumed, so skip it.

Req: Entry CN(C)c1c(C(=O)N[C@H]2CCOc3ccccc32)cnc2c(-c3cc(Cl)cc(Cl)c3)nccc12 , system Cooperia curticei: what mortality at 4 ppm was measured?
Resp: 100

Req: // fetch Cooperia curticei mortality at 4 ppm for COc1c(C(=O)N[C@H]2CCOc3ccccc32)nnc2c(-c3cccc(Cl)c3Cl)cccc12
Resp: 100

Req: Entry CN(C)c1c(C(=O)N[C@H]2CCOc3ccccc32)cnc2c(-c3cccc(Cl)c3Cl)nccc12 , system Cooperia curticei: what mortality at 4 ppm was measured?
Resp: 100

Req: Can you look up mortality at 4 ppm on Cooperia curticei for O=C(N[C@H]1CCOc2ccccc21)c1cnc2c(-c3cc(Cl)cc(Cl)c3)ccnc2c1N1CCOCC1 ?
Resp: 90

* * *

Would you mind telling me the reported EC50 of each entry?
biological target: D. immitis Slo-1 (Dirofilaria immitis); assay: D. immitis Slo-1, action at a recombinant CHO cell line (membrane potential, FLIPR)
Sequence (I0DFK5 1-1119): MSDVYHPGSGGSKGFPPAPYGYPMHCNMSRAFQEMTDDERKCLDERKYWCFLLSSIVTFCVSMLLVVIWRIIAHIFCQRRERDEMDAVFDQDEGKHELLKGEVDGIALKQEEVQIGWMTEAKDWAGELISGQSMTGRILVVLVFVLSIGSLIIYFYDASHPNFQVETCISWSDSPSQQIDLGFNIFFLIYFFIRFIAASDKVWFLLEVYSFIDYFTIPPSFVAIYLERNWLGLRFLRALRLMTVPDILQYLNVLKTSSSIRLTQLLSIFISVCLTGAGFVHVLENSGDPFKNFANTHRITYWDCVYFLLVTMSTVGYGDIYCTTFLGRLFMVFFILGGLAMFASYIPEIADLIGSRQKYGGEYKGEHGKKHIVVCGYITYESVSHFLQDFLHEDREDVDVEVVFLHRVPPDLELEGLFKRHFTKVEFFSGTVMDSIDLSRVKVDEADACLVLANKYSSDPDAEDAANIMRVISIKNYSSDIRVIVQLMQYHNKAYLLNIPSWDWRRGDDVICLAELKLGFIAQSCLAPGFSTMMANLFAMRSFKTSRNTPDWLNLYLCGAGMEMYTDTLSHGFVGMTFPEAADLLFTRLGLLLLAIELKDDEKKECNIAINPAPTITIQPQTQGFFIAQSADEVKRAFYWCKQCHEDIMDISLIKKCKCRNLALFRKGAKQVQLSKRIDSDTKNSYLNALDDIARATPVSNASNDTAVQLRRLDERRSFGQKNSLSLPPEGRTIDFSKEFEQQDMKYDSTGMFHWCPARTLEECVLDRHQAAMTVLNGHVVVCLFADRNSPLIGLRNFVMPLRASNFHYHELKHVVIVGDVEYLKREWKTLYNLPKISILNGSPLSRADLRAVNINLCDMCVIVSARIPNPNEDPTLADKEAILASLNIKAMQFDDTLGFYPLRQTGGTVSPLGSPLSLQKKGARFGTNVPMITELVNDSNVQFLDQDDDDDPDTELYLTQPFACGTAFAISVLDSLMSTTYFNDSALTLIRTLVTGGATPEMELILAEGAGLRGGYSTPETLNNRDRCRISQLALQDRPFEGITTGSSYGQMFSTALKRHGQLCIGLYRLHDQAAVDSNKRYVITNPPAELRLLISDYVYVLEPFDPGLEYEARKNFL

Req: Could you share what EC50 was measured for CN(C)c1c(C(=O)N[C@H]2CCOc3ccccc32)cnc2c(-c3cc(Cl)cc(Cl)c3)c(F)cnc12 , tested on D. immitis Slo-1 (Dirofilaria immitis)?
Resp: 3.16 to 31.6 nM

Req: Hello, I am looking for reported EC50 with D. immitis Slo-1 (Dirofilaria immitis) for COc1cnc(-c2cc(F)cc(F)c2F)c2ncc(C(=O)N[C@H]3CCOc4ccccc43)c(N(C)C)c12 . Could you help?
Resp: 31.6 to 316 nM

Req: Return EC50 measured with D. immitis Slo-1 (Dirofilaria immitis) given this molecule: O=C(N[C@H]1CCOc2ccccc21)c1cnc2c(-c3cccc(Cl)c3Cl)ncc(F)c2c1N1CCOCC1
Resp: 3.16 to 31.6 nM

Req: Hi! What's the reported EC50 for O=C(N[C@H]1CCOc2ccccc21)c1cnc2c(-c3cc(Cl)cc(Cl)c3Cl)nccc2c1N1CCOCC1 on D. immitis Slo-1 (Dirofilaria immitis)?
Resp: 3.16 to 31.6 nM

Req: # query: EC50 | item CN(C)c1c(C(=O)N[C@H]2CCOc3ccccc32)cnc2c(-c3cc(F)cc(F)c3F)c(F)cnc12 | system: D. immitis Slo-1 (Dirofilaria immitis)
Resp: 3.16 to 31.6 nM

Req: What EC50 appears in the records for this molecule with D. immitis Slo-1 (Dirofilaria immitis)? CN(C)c1c(C(=O)N[C@H]2CCOc3ccccc32)cnc2c(-c3cc(Cl)cc(Cl)c3)ncnc12
Resp: 31.6 to 316 nM

Req: Can you look up EC50 on D. immitis Slo-1 (Dirofilaria immitis) for CN(C)c1c(C(=O)N[C@H]2CCOc3ccccc32)cnc2c(-c3cccc(Cl)c3Cl)c(F)cnc12 ?
Resp: 3.16 to 31.6 nM

Req: # query: EC50 | item COc1cnc2c(N3CCOCC3)c(C(=O)N[C@H]3CCOc4ccccc43)cnc2c1-c1cccc(Cl)c1Cl | system: D. immitis Slo-1 (Dirofilaria immitis)
Resp: 3.16 to 31.6 nM

* * *

target: C. elegans Slo-1a (Caenorhabditis elegans, UniProt Q95V25); conditions: pE50 (negative decadic logarithm of EC50), CHO cells expressing C. elegans Slo-1a; voltage sensitive dye, 70 mM KCl
Sequence (Q95V25 whole entry): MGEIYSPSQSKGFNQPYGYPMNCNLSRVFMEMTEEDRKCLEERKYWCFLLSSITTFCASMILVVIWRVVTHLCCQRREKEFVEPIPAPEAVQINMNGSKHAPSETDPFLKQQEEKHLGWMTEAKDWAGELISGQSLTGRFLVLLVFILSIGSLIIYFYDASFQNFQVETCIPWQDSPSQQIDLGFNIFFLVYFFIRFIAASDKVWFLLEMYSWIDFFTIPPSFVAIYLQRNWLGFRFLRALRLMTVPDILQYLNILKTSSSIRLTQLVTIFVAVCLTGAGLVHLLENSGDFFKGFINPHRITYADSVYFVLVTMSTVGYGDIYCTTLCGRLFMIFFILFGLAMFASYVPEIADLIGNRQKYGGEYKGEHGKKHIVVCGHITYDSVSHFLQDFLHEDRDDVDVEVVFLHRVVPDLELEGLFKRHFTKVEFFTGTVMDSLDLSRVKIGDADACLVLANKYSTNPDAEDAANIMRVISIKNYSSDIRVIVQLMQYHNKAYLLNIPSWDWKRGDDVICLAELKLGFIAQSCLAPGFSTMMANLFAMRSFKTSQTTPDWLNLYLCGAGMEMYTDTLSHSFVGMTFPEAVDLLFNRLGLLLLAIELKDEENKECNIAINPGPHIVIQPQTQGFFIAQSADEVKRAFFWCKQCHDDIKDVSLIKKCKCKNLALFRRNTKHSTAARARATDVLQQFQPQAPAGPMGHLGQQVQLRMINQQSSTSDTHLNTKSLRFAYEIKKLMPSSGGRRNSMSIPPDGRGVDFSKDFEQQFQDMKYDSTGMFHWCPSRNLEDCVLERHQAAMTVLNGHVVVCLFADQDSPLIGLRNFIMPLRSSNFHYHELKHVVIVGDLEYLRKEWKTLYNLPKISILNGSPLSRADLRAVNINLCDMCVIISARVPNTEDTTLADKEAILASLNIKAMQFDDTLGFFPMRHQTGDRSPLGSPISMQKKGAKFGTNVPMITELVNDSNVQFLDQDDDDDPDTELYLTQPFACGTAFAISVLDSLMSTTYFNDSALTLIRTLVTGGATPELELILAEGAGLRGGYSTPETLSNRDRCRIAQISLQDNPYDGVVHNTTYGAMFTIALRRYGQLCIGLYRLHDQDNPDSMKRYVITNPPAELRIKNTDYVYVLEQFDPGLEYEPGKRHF
pEC50: −log10 of the molar value.
Would you mind telling me the reported pEC50 of each entry?

Req: Any idea what its pEC50 is? The compound is O=C(N[C@H]1CCOc2ccccc21)c1cnc2c(-c3cc(Cl)cc(Cl)c3)ccnc2c1N1CCOCC1
Resp: 7.50 to 8.50

Req: // pEC50 lookup, key: O=C(N[C@H]1CCOc2ccccc21)c1cnc2c(-c3cccc(Cl)c3Cl)nccc2c1N1CCOCC1
Resp: 7.50 to 8.50

Req: Sample O=C(N[C@H]1CCOc2ccccc21)c1cnc2c(-c3cc(Cl)cc(Cl)c3)cnnc2c1N1CCOCC1 — what was its pEC50?
Resp: 6.50 to 7.50

Req: What does the record list as pEC50 for O=C(N[C@H]1CCOc2ccccc21)c1cnc2c(-c3cccc(Cl)c3Cl)ccnc2c1N1CCOCC1 ?
Resp: > 8.50

Req: Requested read-out: pEC50. Entry: O=C(N[C@H]1CCOc2ccccc21)c1cnc2c(-c3cc(F)cc(F)c3F)nccc2c1N1CCOCC1
Resp: 7.50 to 8.50

Req: Would you mind telling me what pEC50 value was observed for CN(C)c1c(C(=O)N[C@H]2CCOc3ccccc32)cnc2c(-c3cccc(Cl)c3Cl)ccnc12 ?
Resp: > 8.50
